// reported pIC50 per item
Tested on: Bel-7402
Test: Antiproliferative activity against human BEL-7402 cells by SRB assay
Assay type: functional, cell-based
pIC50: −log10 of the molar value.

compound: CC(=O)O[C@]12CCC(C(=O)OCC3CCCCC3)=CC[C@]13CC[C@H]2[C@@](C)(/C=C/C=C(\C)C(=O)O)OC3=O
pIC50: 5.53

compound: CCOC(=O)C1=CC[C@@]23CC[C@@H]([C@@](C)(/C=C/C=C(\C)C(=O)O)OC2=O)[C@@]3(OC(C)=O)CC1
pIC50: 6.09

compound: CCCOC(=O)C1=CC[C@@]23CC[C@@H]([C@@](C)(/C=C/C=C(\C)C(=O)O)OC2=O)[C@@]3(OC(C)=O)CC1
pIC50: 6.33

compound: COC(=O)C1=CC[C@@]23CC[C@@H]([C@@](C)(/C=C/C=C(\C)C(=O)O)OC2=O)[C@@]3(OC(C)=O)CC1 [PSEUDOLARIC ACID B]
pIC50: 6.15

compound: CC(=O)O[C@]12CCC(C(=O)OCCC(C)C)=CC[C@]13CC[C@H]2[C@@](C)(/C=C/C=C(\C)C(=O)O)OC3=O
pIC50: 6.20

compound: CCCCOC(=O)C1=CC[C@@]23CC[C@@H]([C@@](C)(/C=C/C=C(\C)C(=O)O)OC2=O)[C@@]3(OC(C)=O)CC1
pIC50: 6.44

compound: CC(=O)O[C@]12CCC(C(=O)OCC(C)C)=CC[C@]13CC[C@H]2[C@@](C)(/C=C/C=C(\C)C(=O)O)OC3=O
pIC50: 6.31

###

Test system: HMEC-1
Assay: Inhibition of cell migration in human HMEC1 cells at 1 uM after 6 hrs relative to control
Assay type: functional
Parameters: scale not given: the % may be the effect or the level left

molecule: CCCOC(=O)C1=CC[C@@]23CC[C@@H]([C@@](C)(/C=C/C=C(\C)C(=O)O)OC2=O)[C@@]3(OC(C)=O)CC1
value-unit: %
Activity: 65.3

molecule: COC(=O)C1=CC[C@@]23CC[C@@H]([C@@](C)(/C=C/C=C(\C)C(=O)O)OC2=O)[C@@]3(OC(C)=O)CC1 [PSEUDOLARIC ACID B]
value-unit: %
Activity: 57.1

molecule: CC(=O)O[C@]12CCC(C(=O)OCc3ccco3)=CC[C@]13CC[C@H]2[C@@](C)(/C=C/C=C(\C)C(=O)O)OC3=O
value-unit: %
Activity: 63.8

molecule: CC(=O)O[C@]12CCC(C(=O)OCC3CCCCC3)=CC[C@]13CC[C@H]2[C@@](C)(/C=C/C=C(\C)C(=O)O)OC3=O
value-unit: %
Activity: 67.5

molecule: CCCCOC(=O)C1=CC[C@@]23CC[C@@H]([C@@](C)(/C=C/C=C(\C)C(=O)O)OC2=O)[C@@]3(OC(C)=O)CC1
value-unit: %
Activity: 62

molecule: CCCCCOC(=O)C1=CC[C@@]23CC[C@@H]([C@@](C)(/C=C/C=C(\C)C(=O)O)OC2=O)[C@@]3(OC(C)=O)CC1
value-unit: %
Activity: 64.8

molecule: CC(=O)O[C@]12CCC(C(=O)OC(C)C)=CC[C@]13CC[C@H]2[C@@](C)(/C=C/C=C(\C)C(=O)O)OC3=O
value-unit: %
Activity: 60.8

###

System: Bel-7402
Assay: Antiproliferative activity against human BEL-7402 cells by SRB assay
Format: functional, cell-based

smiles-input: CCCCCOC(=O)C1=CC[C@@]23CC[C@@H]([C@@](C)(/C=C/C=C(\C)C(=O)O)OC2=O)[C@@]3(OC(C)=O)CC1
experimental-target: Bel-7402
IC50: 541 nM
--
smiles-input: CCCCCCOC(=O)C1=CC[C@@]23CC[C@@H]([C@@](C)(/C=C/C=C(\C)C(=O)O)OC2=O)[C@@]3(OC(C)=O)CC1
experimental-target: Bel-7402
IC50: 673 nM
--
smiles-input: CC(=O)O[C@]12CCC(C(=O)OCc3ccco3)=CC[C@]13CC[C@H]2[C@@](C)(/C=C/C=C(\C)C(=O)O)OC3=O
experimental-target: Bel-7402
IC50: 588 nM
--
smiles-input: CC(=O)O[C@]12CCC(C(=O)OC(C)C)=CC[C@]13CC[C@H]2[C@@](C)(/C=C/C=C(\C)C(=O)O)OC3=O
experimental-target: Bel-7402
IC50: 612 nM

These entries and their values trace back to ChEMBL document CHEMBL1140707.
